- TESTED_ON: human T-type calcium channels hCav3.2 (Homo sapiens, UniProt O95180)
- Construct: expressed in transfected cells; host or cells: HEK 293 cells (European Collection of Animal Cell Culture)
- Sequence (O95180 whole entry): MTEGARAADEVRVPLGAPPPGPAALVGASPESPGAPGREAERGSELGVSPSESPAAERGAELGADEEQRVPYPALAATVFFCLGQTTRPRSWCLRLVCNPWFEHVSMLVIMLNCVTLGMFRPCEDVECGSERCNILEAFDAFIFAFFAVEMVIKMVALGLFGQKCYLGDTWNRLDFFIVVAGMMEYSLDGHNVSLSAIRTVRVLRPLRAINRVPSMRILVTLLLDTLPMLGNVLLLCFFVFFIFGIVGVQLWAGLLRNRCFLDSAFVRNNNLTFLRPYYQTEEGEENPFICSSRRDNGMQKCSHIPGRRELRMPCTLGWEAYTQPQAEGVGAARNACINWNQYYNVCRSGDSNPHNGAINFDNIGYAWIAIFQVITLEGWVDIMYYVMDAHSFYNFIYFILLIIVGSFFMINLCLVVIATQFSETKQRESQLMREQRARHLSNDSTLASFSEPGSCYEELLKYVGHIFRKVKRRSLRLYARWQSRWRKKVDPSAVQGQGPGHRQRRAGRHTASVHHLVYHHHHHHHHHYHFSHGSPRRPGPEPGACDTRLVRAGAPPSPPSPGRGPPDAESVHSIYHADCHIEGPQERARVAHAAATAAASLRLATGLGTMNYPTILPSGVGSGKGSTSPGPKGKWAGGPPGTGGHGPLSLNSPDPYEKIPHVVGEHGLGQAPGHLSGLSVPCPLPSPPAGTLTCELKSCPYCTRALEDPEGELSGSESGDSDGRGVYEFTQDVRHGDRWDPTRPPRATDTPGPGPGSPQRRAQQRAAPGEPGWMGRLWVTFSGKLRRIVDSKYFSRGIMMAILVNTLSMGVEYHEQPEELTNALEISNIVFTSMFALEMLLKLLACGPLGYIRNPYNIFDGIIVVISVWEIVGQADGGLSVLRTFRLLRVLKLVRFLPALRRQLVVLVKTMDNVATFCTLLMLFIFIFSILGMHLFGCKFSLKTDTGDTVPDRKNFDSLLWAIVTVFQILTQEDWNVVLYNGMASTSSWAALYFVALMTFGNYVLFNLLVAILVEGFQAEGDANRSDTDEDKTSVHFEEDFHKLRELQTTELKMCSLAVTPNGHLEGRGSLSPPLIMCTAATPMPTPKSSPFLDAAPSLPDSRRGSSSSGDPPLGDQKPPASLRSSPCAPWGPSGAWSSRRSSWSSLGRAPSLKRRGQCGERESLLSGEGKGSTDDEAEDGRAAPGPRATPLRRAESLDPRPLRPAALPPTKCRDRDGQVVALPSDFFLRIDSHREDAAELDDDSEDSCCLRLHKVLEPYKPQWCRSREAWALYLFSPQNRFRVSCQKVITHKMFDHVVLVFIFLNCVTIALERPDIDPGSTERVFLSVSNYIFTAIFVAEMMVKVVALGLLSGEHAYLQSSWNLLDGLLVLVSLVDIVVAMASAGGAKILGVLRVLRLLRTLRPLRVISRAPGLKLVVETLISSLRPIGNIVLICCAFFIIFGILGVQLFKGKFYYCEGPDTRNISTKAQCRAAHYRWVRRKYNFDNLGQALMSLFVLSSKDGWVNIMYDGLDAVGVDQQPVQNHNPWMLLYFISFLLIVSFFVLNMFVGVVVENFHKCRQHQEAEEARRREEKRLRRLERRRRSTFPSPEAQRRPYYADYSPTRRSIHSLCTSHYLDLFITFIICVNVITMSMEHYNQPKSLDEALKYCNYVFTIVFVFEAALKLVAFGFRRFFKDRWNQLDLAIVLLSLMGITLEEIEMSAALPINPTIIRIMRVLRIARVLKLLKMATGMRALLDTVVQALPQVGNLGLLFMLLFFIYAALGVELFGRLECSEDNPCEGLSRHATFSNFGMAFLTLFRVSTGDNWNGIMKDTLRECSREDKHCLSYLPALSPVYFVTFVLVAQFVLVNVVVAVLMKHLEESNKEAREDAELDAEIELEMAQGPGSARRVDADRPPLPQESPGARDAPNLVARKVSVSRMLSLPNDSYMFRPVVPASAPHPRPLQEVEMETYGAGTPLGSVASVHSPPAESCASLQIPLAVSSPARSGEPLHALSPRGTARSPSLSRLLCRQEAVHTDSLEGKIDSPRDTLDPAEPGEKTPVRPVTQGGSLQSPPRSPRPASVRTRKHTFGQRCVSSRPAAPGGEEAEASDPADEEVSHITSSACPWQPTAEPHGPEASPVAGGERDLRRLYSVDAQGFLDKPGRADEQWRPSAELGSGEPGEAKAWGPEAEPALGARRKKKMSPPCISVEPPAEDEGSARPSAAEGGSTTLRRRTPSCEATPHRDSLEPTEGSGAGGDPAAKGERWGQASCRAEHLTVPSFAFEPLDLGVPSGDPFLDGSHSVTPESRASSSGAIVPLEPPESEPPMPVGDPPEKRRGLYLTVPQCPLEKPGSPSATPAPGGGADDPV
- ASSAY_COMMENT: whole-cell patch-clamp, calcium peak currents in stably transfected HEK 293 cells
- Assay type: cell-based
- CONDITION_SET: two site binding model, low affinity fit; read-out: hCav3.2 IC50 (μM) Low affinity
Exercise: for every item that follows, state its recorded IC50.
Numeric only. Scale: µM

# get_value(readout='IC50', item= NC(=O)N1c2ccccc2C[C@@H](O)c2ccccc21 [R-licarbazepine] ) 883

Repeat with NC(=O)N1c2ccccc2C=Cc2ccccc21 [Carbamazepine, 5H-dibenzo[b,f]azepine-5-carboxamide] 711

Further, for NC(=O)N1c2ccccc2C[C@H](O)c2ccccc21 [Eslicarbazepine] ? 62.6

These data points were gathered from patent US9750747B2.
